Attribution: patent US20080267948A1

assayed system: Hb-AGE (glucose-6-phosphate modified human haemoglobin) (Homo sapiens, UniProt P68871+P69905)
Construct: purchased Sigma-Aldrich H7379
Sequence (P69905 2-142 limits assumed): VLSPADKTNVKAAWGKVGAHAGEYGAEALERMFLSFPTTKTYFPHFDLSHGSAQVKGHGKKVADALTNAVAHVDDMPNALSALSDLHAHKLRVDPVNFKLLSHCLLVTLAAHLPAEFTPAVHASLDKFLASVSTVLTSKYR
Sequence (P68871 2-147 limits assumed): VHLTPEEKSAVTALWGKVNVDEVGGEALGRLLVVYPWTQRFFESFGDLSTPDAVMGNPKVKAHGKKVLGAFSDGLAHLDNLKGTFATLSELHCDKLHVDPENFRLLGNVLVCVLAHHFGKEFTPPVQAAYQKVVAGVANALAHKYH
procedure details: ELISA binding of tPA to immobilized Hb-AGE, compounds co-incubated with tPA
conditions used: compound mixed with tPA, control without compound = 100
experimental endpoint: % tPA binding to Hb-AGE (co-incubation) (%)
Give the number; % is assumed, so skip it.

Examples with answers:
COc1cc2c(cc1O)-c1c(O)c(OC)cc3c1[C@H](C2)N(C)CC3
55
COc1cc2c(Cc3c4c5c(cc(OC)c(OC)c5c5c(OC)c(OC)ccc35)CCN4C)c3c4c(cc(OC)c(OC)c4c2cc1OC)CCN3C [compound 210, dehydroglaucine derivative]
80
COc1cc2c(cc1OC)-c1c(OC)c(OC)c(CO)c3c1C(C2)N(C)CC3 (centres unmarked)
50
COc1cc2c(cc1OC)-c1c(OC)c(OC)c(C=O)c3c1[C@H](C2)N(C)CC3 [compound 213, dehydroglaucine derivative]
60

For this compound ( COc1cc2c(cc1OC)-c1c(O)c(OC)cc3c1[C@H](C2)N(C)CC3 ), measured % tPA binding to Hb-AGE (co-incubation) is 30
